The measurements presented in this section are drawn from ChEMBL document CHEMBL1137106.

The compounds listed here are annotated with their IA.
system: Cell line; assay: Percentage of alpha-MSH stimulated cAMP level at 10 uM; type: functional, Homo sapiens

| compound | IA |
| --- | --- |
| O=C(Cc1ccc(Cl)cc1)N1CCN(c2ccccc2CNCCc2cccs2)CC1 | <45% |

compound NC(Cc1ccccc1Cl)C(=O)N1CCN(c2ccccc2CNCCc2cccs2)CC1 (stereo not drawn) , IA observed: <45%

Entry NC(Cc1ccc(Cl)cc1)C(=O)N1CCN(c2ccccc2CNCCc2cccs2)CC1 (stereo not drawn) , IA reported as <45%

* * *

test system: Cell line; assay: Percentage of alpha-MSH stimulated cAMP level at 10 uM; format: functional, Homo sapiens
outcomeMeasure: IA (%)
Answer in %, number only, no unit symbol.

| compound | IA [%] |
| --- | --- |
| CC(Nc1ccccc1N)c1ccccc1N1CCN(C(=O)[C@@H](Cc2ccc(Cl)cc2)NC(=O)CCN)CC1 (stereo partly drawn) | 56 |
| CC(NCCN1CCCCC1)c1ccccc1N1CCN(C(=O)[C@@H](Cc2ccc(Cl)cc2)NC(=O)CCN)CC1 (stereo partly drawn) | 41 |
| COCC(=O)N[C@H](Cc1ccc(Cl)cc1)C(=O)N1CCN(c2ccccc2CNCCc2cccs2)CC1 | 16 |
| O=C(N[C@H](Cc1ccc(Cl)cc1)C(=O)N1CCN(c2ccccc2CNCCc2cccs2)CC1)C1CCCN1 (stereo partly drawn) | 56 |

Attention now shifts to the item below.
// recorded IA for `NCC(=O)N[C@H](Cc1ccc(Cl)cc1)C(=O)N1CCN(c2ccccc2CNCCc2cccs2)CC1` : 77
